# target.under.test: HCoV-NL63 nsp10-nsp16 complex (Human coronavirus NL63, UniProt P0C6X5)
# Sequence (P0C6X5 6430-6729 limits assumed): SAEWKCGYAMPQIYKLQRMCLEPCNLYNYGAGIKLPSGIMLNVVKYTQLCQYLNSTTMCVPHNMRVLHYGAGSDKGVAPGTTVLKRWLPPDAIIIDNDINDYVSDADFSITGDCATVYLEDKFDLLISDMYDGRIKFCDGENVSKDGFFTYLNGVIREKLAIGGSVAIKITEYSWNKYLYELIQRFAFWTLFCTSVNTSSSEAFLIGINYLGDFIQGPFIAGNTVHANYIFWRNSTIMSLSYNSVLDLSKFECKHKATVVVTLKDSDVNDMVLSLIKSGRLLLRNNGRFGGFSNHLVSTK
# Sequence (P0C6X5 3909-4043 partner limits assumed): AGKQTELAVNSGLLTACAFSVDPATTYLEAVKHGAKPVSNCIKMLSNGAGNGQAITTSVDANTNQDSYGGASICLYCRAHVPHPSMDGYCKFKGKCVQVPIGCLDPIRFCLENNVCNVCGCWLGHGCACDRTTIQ
# experiment.description: biochemical
# details: IC50, HCoV-NL63; substrate RNA N7mGpppACCCCC 0.3 μM, 2 μM 3H-SAM
quantity: IC50 (µM)
Number in µM, nothing else.

Quick one: IC50 of Nc1ncnc2c1ncn2[C@@H]1O[C@H](CSCC[C@H](N)C(=O)O)[C@@H](O)[C@H]1O ?
2.4

----------
# target.under.test: HCoV-HKU1 nsp10-nsp16 complex (Human coronavirus HKU1)
# experiment.description: biochemical
quantity: pIC50
Scale explanation: pIC50 corresponds to minus log10 of a concentration expressed in moles per litre.

Quick one: pIC50 of Nc1ncnc2c1ncn2[C@@H]1O[C@H](CSCC[C@H](N)C(=O)O)[C@@H](O)[C@H]1O ?
6.70

----------
# target.under.test: HCoV-HKU1 nsp10-nsp16 complex (Human coronavirus HKU1, UniProt P0C6X3)
# Sequence (P0C6X3 6854-7152 limits assumed): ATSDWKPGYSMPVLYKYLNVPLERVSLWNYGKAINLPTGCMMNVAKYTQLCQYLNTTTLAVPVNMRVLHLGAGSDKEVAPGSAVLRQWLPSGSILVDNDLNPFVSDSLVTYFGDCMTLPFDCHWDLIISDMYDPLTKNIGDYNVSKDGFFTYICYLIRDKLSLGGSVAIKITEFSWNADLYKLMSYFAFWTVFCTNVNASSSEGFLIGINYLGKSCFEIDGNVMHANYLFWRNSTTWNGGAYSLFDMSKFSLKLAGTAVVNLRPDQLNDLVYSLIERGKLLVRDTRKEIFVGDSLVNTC
# Sequence (P0C6X3 4291-4427 partner limits assumed): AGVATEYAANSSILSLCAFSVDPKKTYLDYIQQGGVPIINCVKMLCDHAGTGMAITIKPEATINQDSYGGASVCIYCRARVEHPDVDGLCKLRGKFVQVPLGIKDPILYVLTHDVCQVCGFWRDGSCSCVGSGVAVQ
# experiment.description: biochemical
# details: IC50, HCoV-HKU1; substrate RNA N7mGpppACCCCC 0.3 μM, 2 μM 3H-SAM
quantity: pIC50
Scale explanation: pIC50 corresponds to minus log10 of a concentration expressed in moles per litre.

Quick one: pIC50 of Nc1ncnc2c1ncn2[C@@H]1O[C@H](CSCC[C@H](N)C(=O)O)[C@@H](O)[C@H]1O ?
5.68

----------
# target.under.test: HCoV-OC43 nsp10-nsp16 complex (Human coronavirus OC43, UniProt P0C6X6)
# Sequence (P0C6X6 6797-7095 limits assumed): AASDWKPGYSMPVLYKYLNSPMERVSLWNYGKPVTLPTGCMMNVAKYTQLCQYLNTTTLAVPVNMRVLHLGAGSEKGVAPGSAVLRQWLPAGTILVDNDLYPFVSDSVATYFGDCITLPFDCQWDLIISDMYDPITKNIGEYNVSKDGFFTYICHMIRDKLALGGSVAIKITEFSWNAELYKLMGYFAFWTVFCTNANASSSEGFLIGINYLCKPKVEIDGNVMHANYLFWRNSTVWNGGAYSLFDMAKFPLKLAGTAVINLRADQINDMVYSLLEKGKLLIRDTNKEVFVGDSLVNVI
# Sequence (P0C6X6 4233-4369 partner limits assumed): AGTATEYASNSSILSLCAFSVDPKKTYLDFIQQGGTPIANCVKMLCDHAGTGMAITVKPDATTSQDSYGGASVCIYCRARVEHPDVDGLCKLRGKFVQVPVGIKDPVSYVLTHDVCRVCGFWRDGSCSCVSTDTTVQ
# experiment.description: biochemical
# details: IC50, HCoV-OC43; substrate RNA N7mGpppACCCCC 0.3 μM, 2 μM 3H-SAM
quantity: IC50

Quick one: IC50 of Nc1ncnc2c1ncn2[C@@H]1O[C@H](CSCC[C@H](N)C(=O)O)[C@@H](O)[C@H]1O ?
4.4 µM

Where do the numbers come from? From paper PMC9908617.
